Measured pIC50, listed per entry for reference.
system: PC-3 prostate cancer cells; assay: EDR anti-proliferation assay (3H-thymidine incorporation, soft agar), PC-3; assay type: cell-based; conditions: PC-3 cell line; five days incubation; 3H-TdR incorporation; read-out: PC-3 or MCF-7* IC50
Scale explanation: pIC50 corresponds to minus log10 of a concentration expressed in moles per litre.

// worked examples, pIC50 included
compound | recorded.number
CCCC(=O)OCN(C)C(=O)C=Cc1ccccc1 [N-methylcinnamamidomethyl butyrate, N-Methylcinnamamidomethyl Butyrate] | 4.70
CCCC(=O)OCOC(=S)C=Cc1ccccc1 [butyroyloxymethyl thiocinnamate, Butyroyloxymethyl Thiocinnamate] | 4.52

Input: Need pIC50 of CCCC(=O)N(C)COC(=O)C=Cc1ccccc1 [N-methylbutyramidomethyl cinnamate, N-Methylbutyramidomethyl Cinnamate] , thanks.
Output: 4.00

Input: Need pIC50 of CCCC(=S)OCOC(=O)C=Cc1ccccc1 [cinnamoyloxymethyl thio-butyrate, Cinnamoyloxymethyl Thiobutyrate] , thanks.
Output: 4.52

Input: Need pIC50 of CCCC(=O)SCSC(=O)CCC , thanks.
Output: 4.40

Input: Need pIC50 of CCCC(=O)CCOC(=O)C=Cc1ccccc1 [3-oxohexyl cinnamate, 3-Oxohexyl Cinnamate] , thanks.
Output: 4.40

Input: Need pIC50 of CC(/C=C/C(=O)NO)=C\[C@@H](C)C(=O)c1ccc(N(C)C)cc1 [trichostatin, reference compound] , thanks.
Output: 8.30

Input: Need pIC50 of CCCC(=O)OCN(C)C(=O)COCCOC , thanks.
Output: 4.44
